Reported EC50 values follow for various compounds
- Method Description: Trypanosoma cruzi growth suppression in host cells – NIH3T3 host cells, beta-gal luminescence, confirmation (AID 2044);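 note: intracellular parasites grown in NIH/3T3 mouse fibroblasts as host cells; luminescent beta-galactosidase reporter signal from transgenic T. cruzi replicating inside host cells; inhibitors lower the luminescence signal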
- Assay type: functional, cell-based
Activity calls are given as the source filed them. Cut-off read from the data, not from the text of the source: actives have a measured EC50 and inactives only a lower limit.
Experimental Readout: EC50

* O=C(c1ccc(CSc2nc3cc[nH]cc-3n2)cc1)N1CCN(c2cccc(Cl)c2)CC1 | 1390 nM (active)
* O=S(=O)(CC(CN1CCCCC1)N1CCCCC1)c1ccc2ccccc2c1 (stereo not given) | 2650 nM (active)
* CCc1ccc(-c2cc(C(=O)N3N=C(C(F)F)CC3(O)C(F)F)c3ccccc3n2)cc1 (stereo not given) | 2900 nM (active)
* Cc1cc(C)c2nc(N(CCCN(C)C)C(=O)c3ccc4c(c3)CCCC4)sc2c1 | 727 nM (active)
* Cc1ccc(N2C(=O)c3ccccc3NC2C(C)Cc2ccc3c(c2)OCO3)cc1 (stereo not given) | 2610 nM (active)
* Cc1ccc(S(=O)(=O)c2c(C)cc(C)nc2Cl)c(C)c1 | 2000 nM (active)
* Cc1ccc(Nc2cc(C)c3c(O)cccc3n2)cc1C | 2810 nM (active)
* S=C(Nc1ccc(Br)cc1Cl)NC1CCN(Cc2ccccc2)CC1 | 228 nM (active)
* O=C(Nc1nc(-c2ccccc2)cs1)C1CCCCN1S(=O)(=O)c1ccc(Cl)cc1 (stereo not given) | 2220 nM (active)
* O=C(OCn1ncc(Cl)c(Cl)c1=O)c1ccc(C(F)(F)F)cc1 | 1920 nM (active)
